Overview of reported ED50 across a group of molecules:
test: In vivo effective dose for lipolysis in african monkeys after iv administration; assay type: functional; details: Cercopithecidae

chemical.structure	ED50 (mg/kg)
CS(=O)(=O)Nc1cc([C@@H](O)CN[C@H](Cc2ccccc2)c2ccc(OC(F)F)cc2)ccc1O	0.02
CS(=O)(=O)Nc1cc([C@@H](O)CN[C@H](Cc2ccccc2)c2ccc3c(c2)OCO3)ccc1O	0.02
CS(=O)(=O)Nc1cc([C@@H](O)CN[C@H](Cc2ccccc2)c2cccc3ccccc23)ccc1O	0.25
CS(=O)(=O)Nc1cc([C@@H](O)CN[C@H](Cc2ccccc2)c2ccc(OC(F)F)c3ccccc23)ccc1O	0.25

The origin of these recorded values is ChEMBL document CHEMBL1133858.
